Origin of measurements: ChEMBL document CHEMBL1201862

- System: UACC-257
- experiment: NCI tumour cell line growth inhibition, 48 h
Calls of active or inactive are those of the source. Cut-off read from the data, not from the text of the source: active = GI50 up to about 1.1 µM and inactive = higher.
measured.quantity: GI50

molecule	measured.quantity	data.value
CCOC(=O)c1csc(NC(=O)CN2CCN(c3ccccc3)CC2)n1	GI50	> 100 µM (inactive)
CC(C)c1c(O)c(O)c2c(c1O)C(=O)C(O)=C1C(C)(C)CCC[C@@]12C	GI50	2.67 µM (inactive)
CCCCCCCCCCCCC(Br)C(=O)SCCNC(=O)CCNC(=O)[C@@H](O)C(C)(C)COP(=O)(O)OP(=O)(O)OCC1OC(n2cnc3c(N)ncnc32)C(O)C1OP(=O)(O)O (some centres undefined)	GI50	14.6 µM (inactive)
O=C1C[C@@H](Sc2ccccc2)C2(OCCO2)[C@H]2ON3CCC[C@@H]3[C@@H]12	GI50	13.4 µM (inactive)
c1csc(-c2cc(-c3ccsc3)c(-c3cccs3)s2)c1	GI50	56.2 µM (inactive)
COc1ccc(CNc2cnc3ccc(N)cc3n2)cc1	GI50	> 100 µM (inactive)
Cc1ccc(NC(c2ccccc2)c2ccc3cccnc3c2O)cc1 (centres undefined)	GI50	9.79 µM (inactive)
O=C1c2ccccc2C(=O)c2c1ccc(C(=O)O)c2-c1ccc2ccccc2c1	GI50	49.8 µM (inactive)
CC1(C)OC(=S)N(c2ccccc2)C12C=Cc1cc3ccccc3cc1O2 (centres undefined)	GI50	> 100 µM (inactive)
Cc1ccccc1NC(=O)C(=O)CC(=O)C1CCOC1=O (centres undefined)	GI50	> 100 µM (inactive)
O=C(Nc1ncc([N+](=O)[O-])s1)c1ccccc1O [TIZOXANIDE]	GI50	20.7 µM (inactive)
O=C1c2ccccc2-c2ccc(NC(=O)C3CCCCC3C(=O)O)cc21 (centres undefined)	GI50	> 100 µM (inactive)
CC(C)/C(Cl)=N/OC(=O)Nc1ccc(F)c(Cl)c1	GI50	13.5 µM (inactive)
[O-][n+]1c(-c2ccccc2)oc2ccccc21	GI50	7.71 µM (inactive)

---

- System: UACC-257
- experiment: NCI tumour cell line growth inhibition, 48 h
Activity calls are given as the source filed them. Rule as the data show it: active = GI50 up to about 1.1 µM and inactive = higher.
Labels: class 1 for active, class 0 for inactive

molecule	target.or.test.system	class.name
CC(C)(C)N/N=C(\C(=O)Nc1cccc(Cl)c1)C1C(=O)Nc2ccccc2[S+]1[O-] (configuration not stated)	UACC-257	class 0
Cc1ccc(NC(=O)C2C(=O)N(c3ccc(C)cc3)C(=O)/C2=N\NC(N)=S)cc1 (configuration not stated)	UACC-257	class 0
COC(=O)[C@@]12OC[C@]34[C@H]([C@@H](O)[C@@H]1O)[C@@]1(C)CC(=O)C(O)=C(C)[C@@H]1C[C@H]3OC(=O)[C@H](OC(=O)/C=C(\C)C(C)C)[C@@H]24 [BRUCEANTIN]	UACC-257	class 1
C/C1=C/C2OC(=O)C3(C)C2C(CC2(C)OC1=CC2=O)OC3(O)C(C)C (configuration not stated)	UACC-257	class 0
CCOC(=O)C1(Cc2c[nH]c3ccccc23)C(O)CCCN1C(C)=O (configuration not stated)	UACC-257	class 0
CC(CO)(CO)/N=C/c1cc(I)cc(I)c1O	UACC-257	class 0
Cc1c(-c2ccccc2)c(C#N)c2nnn(-c3cccc(Cl)c3)c(=O)n12	UACC-257	class 0
O=C1c2ccccc2C(=O)c2oc(Br)cc21	UACC-257	class 1
O=C(O)Cc1ccccc1 [PHENYLACETIC ACID]	UACC-257	class 0
Brc1ccc2c(c1)[C@H]1CCc3c([nH]c4ccccc34)[C@H]1N2	UACC-257	class 0
Cn1cnc([N+](=O)[O-])c1Sc1n[nH]c(-c2ccc(Cl)cc2)n1	UACC-257	class 0
Cc1ccc2c(c1)SSSSS2	UACC-257	class 0
